test system: BT-549 breast; test: NCI tumour cell line growth inhibition, 48 h
This section presents molecules with their documented TGI values.
I only need the number, in µM, no unit after it.

## Input Provide the reported TGI (system: BT-549 breast) for COc1cc2nc(-c3cnc(N(C)C)nc3)nc(NC3CCN(Cc4ccccc4)CC3)c2cc1OC
## Output 3.43

## Input Give measured TGI for Cc1nn(-c2nc3ccccc3s2)c(C)c1Oc1ccccc1O (BT-549 breast).
## Output 25.5

## Input For BT-549 breast, give TGI of the listed molecule: c1ccc(Cn2cc3c(c2-c2ccccc2)CCc2cnoc2-3)cc1
## Output 56.1

New cases:
## Input For BT-549 breast, give the measured TGI of the entry CC1=C[C@H]2c3c(c(O)c(O)c4oc5c(C)cccc5c(=O)c34)[C@H](c3cc(O)c(O)c4oc5c(C)cccc5c(=O)c34)[C@H]2C(C)(C)C1
## Output 5.04
